Here, each record is paired with measured Ratio data.
method-notes: Ratio of inhibitory effect of bovine trypsin to that of bovine thrombin
Lab note: jot down the number only; don't add units.

// known answers, use as guide
Given the entry N=C(NN)c1ccc(C[C@@H](NC(=O)CNS(=O)(=O)c2ccc3ccccc3c2)C(=O)N2CCCCC2)cc1 , report its measured Ratio.
36

Form field: reported Ratio of CNC(=N)c1ccc(C[C@H](NS(=O)(=O)c2ccc3ccccc3c2)C(=O)N2CCCCCC2)cc1
12000

May I ask what Ratio has been recorded for N=C(NN)c1ccc(C[C@H](NS(=O)(=O)c2ccc3ccccc3c2)C(=O)N2CCCCCC2)cc1 ?
2540

More entries:
Recorded Ratio for N=C(N)c1ccc(C[C@H](NS(=O)(=O)c2ccc3ccccc3c2)C(=O)N2CCCCCC2)cc1 , please?
166

Please look up its Ratio: CNC(=N)c1ccc(C[C@@H](NC(=O)CNS(=O)(=O)c2ccc3ccccc3c2)C(=O)N2CCCCC2)cc1
19

Using the record for N/C(=N\O)c1ccc(C[C@H](NS(=O)(=O)c2ccc3ccccc3c2)C(=O)N2CCCCCC2)cc1 , report its Ratio.
277

###

Entries and their measured pKi follow.
test-system: UniProtKB P00760
Sequence (P00760 whole entry): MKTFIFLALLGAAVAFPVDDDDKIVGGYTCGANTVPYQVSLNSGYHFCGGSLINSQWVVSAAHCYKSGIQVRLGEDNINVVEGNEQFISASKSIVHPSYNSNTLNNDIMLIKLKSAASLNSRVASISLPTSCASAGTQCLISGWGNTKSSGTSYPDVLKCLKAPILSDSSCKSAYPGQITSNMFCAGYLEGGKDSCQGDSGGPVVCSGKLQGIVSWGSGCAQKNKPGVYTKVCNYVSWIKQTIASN
The meaning of pKi here: minus log10 of the concentration in molar units.

Illustrative cases are given below, each with its answer.
Which pKi is listed for CN=C(N)c1ccc(C[C@@H](NC(=O)CNS(=O)(=O)c2ccc3ccccc3c2)C(=O)N2CCCCC2)cc1 ?
4.09

Which pKi reading was recorded for the compound N=C(N)c1ccc(C[C@H](NS(=O)(=O)c2ccc3ccccc3c2)C(=O)N2CCCCCC2)cc1 ?
5.06

More entries:
If you can, please state the reported pKi value of N=C(NN)c1ccc(C[C@H](NS(=O)(=O)c2ccc3ccccc3c2)C(=O)N2CCCCCC2)cc1 .
5.43

###

Below: a set of entries, each annotated with reported pKi.
test-system: Prothrombin (Bos taurus)
On this scale, pKi is minus log10 of a concentration expressed in M (mol/L).

Example entries begin here.
Which pKi value is on record for N=C(NN)c1ccc(C[C@H](NS(=O)(=O)c2ccc3ccccc3c2)C(=O)N2CCCCCC2)cc1 ?
8.83

Requested field: pKi. Item: NN=C(N)c1ccc(C[C@@H](NC(=O)CNS(=O)(=O)c2ccc3ccccc3c2)C(=O)N2CCCCC2)cc1
5.27

Entry under review: N=C(NO)c1ccc(C[C@H](NS(=O)(=O)c2ccc3ccccc3c2)C(=O)N2CCCCCC2)cc1 . Reported pKi?
5.94

Record request: pKi value, item N=C(N)c1ccc(C[C@H](NS(=O)(=O)c2ccc3cc4ccccc4cc3c2)C(=O)N2CCCCCC2)cc1
7.30

Entry NN=C(N)c1ccc(C[C@@H](NC(=O)CNS(=O)(=O)c2ccc3ccccc3c2)C(=O)N2CCCCCC2)cc1 : reported pKi = ?
5.57

More entries:
Item CN=C(N)c1ccc(C[C@@H](NC(=O)CNS(=O)(=O)c2ccc3ccccc3c2)C(=O)N2CCCCC2)cc1 has what recorded pKi?
5.36

# get_value(readout='pKi', item= N=C(NN)c1ccc(C[C@H](NS(=O)(=O)c2ccc3cc4ccccc4cc3c2)C(=O)N2CCCCCC2)cc1 )
9.00

Record request: pKi value, item N=C(N)c1ccc(C[C@@H](NC(=O)CNS(=O)(=O)c2ccc3ccccc3c2)C(=O)N2CCCCCC2)cc1
7.70

Any idea what pKi was measured for N=C(N)c1ccc(C[C@@H](NC(=O)CNS(=O)(=O)c2ccc3ccccc3c2)C(=O)N2CCCCC2)cc1 ?
8.19
